# credit: paper PMC7927014

tested on: MDA-MB-231 cells; experiment: Tumorosphere assay (low adhesion, serum-free 3D spheroid culture); type: cell-based; conditions: Homo sapiens, MDA-MB-231, 72 h; read-out: 3D spheroid formation IC50
MEASUREMENT NAME: IC50 (µM)
The reply should contain only the number, in µM.

{"columns": ["MOLECULE", "RESULT UNITS", "IC50"],
 "data": [
  ["N=C(CSS(=O)(=O)O)NCC12CC3CC(CC(C3)C1)C2", "µM", 26]
]}

// switching to the query molecule
IC50 in this record for CCOc1ccc(C(=O)c2ccc(O)c(O)c2O)cc1 [×1540, 2,3,4-TRIHYDROXY-4'-ETHOXYBENZOPHENONE] : 58

----------
Catalogue of pIC50 readings, one per entry.
System: MIA PaCa-2 cells
Assay: Tumorosphere assay (low adhesion, serum-free 3D spheroid culture)
Type: cell-based
Details: Homo sapiens; MIA PaCa-2 (pancreas), low attachment, serum-free, 72 h; read-out: 3D spheroid formation IC50
Procedure: Per well, 2000 cells were seeded in flat bottom 96-well suspension culture plates (cat. no. 655185, Cellstar, Greiner Bio-One) in 100 µL DMEM or RPMI media containing 1× B27 (cat. no. 17504044, Gibco, Thermo Fisher Scientific), 25 ng/mL EGF (cat. no. E9644, Sigma-Aldrich), and 25 ng/mL FGF (cat. no. RP-8628, Thermo Fisher Scientific), 20% MethoCult H4100 (cat. no. 04100, […] Technologies). […]
Just the number, please; pIC50 means minus log10 of the concentration in mol/L.

{"columns": ["MOLECULE", "TARGET DESC", "pIC50"],
 "data": [
  ["N=C(CSS(=O)(=O)O)NCC12CC3CC(CC(C3)C1)C2 [×6506]", "MIA PaCa-2 cells", 4.52]
]}

pIC50 in this record for CCOc1ccc(C(=O)c2ccc(O)c(O)c2O)cc1 [×1540, 2,3,4-TRIHYDROXY-4'-ETHOXYBENZOPHENONE] : 4.28

----------
target: Hsp90/Cdc37 (Homo sapiens, UniProt P07900); construct: The Hsp90/Cdc37 split Renilla luciferase assay using the full length Hsp90 for the compound screening was described previously; expressed in transfected cells; host or cells: HEK293 EBNA cells, cleared lysates; assay: Hsp90/Cdc37 split Renilla luciferase assay, full length Hsp90 (cell lysate; IC50 and 20 μM validation); type: biochemical; details: MolPort Screening-3; tested concentration of drugs 20 μM; average of 3 wells (DMSO 248028)
Catalogue of Average RLU readings, one per entry.
The reply should contain only the number, in RLU.

{"columns": ["MOLECULE", "TARGET DESC", "MEASUREMENT NAME", "RESULT UNITS", "VALUE REPORTED"],
 "data": [
  ["C/C1=C\\[C@H](C)C[C@H](C)[C@H](Cc2cnco2)OC(=O)/C(C)=C/[C@H](C)C[C@H](C)[C@H](Cc2cnco2)OC1=O [conglobatin A, reference compound]", "Hsp90/Cdc37 (Homo sapiens, UniProt P07900)", "Average RLU", "RLU", 98821]
]}

// switching to the query molecule
Average RLU in this record for C=CCNC1=C2C[C@@H](C)C[C@H](OC)[C@H](O)[C@@H](C)/C=C(\C)[C@H](OC(N)=O)[C@@H](OC)/C=C\C=C(/C)C(=O)NC(=CC1=O)C2=O [17-AAG, 17-allylamino-17-demethoxy-geldanamycin, reference compound] : 225640
